This collection of values is drawn from patent US20250034197A1.

Answer each item with its documented half-life.
Experiment: PK / tissue distribution in Sprague-Dawley rats
Format: in vivo
Details: female, rat, plasma, PO 5 mg/kg, read-out: T1/2 post PO Dosing @5 mg/kg (converted)
Description: Tissue distribution study of the compounds disclosed herein were conducted in SD rats and mice to assess their liver-targeting properties. […] The pharmacokinetics of the compounds disclosed herein were evaluated in female Sprague-Dawley rats after administration via oral gavage and intravenous bolus (IV) injection. […] The samples were analyzed by LC/MS/MS and the concentrations of test compound and its metabolites at each time point were determined. […]
Quick note: number first, unit second.

Compound	Observed Measurement
C=C[C@@]1(F)[C@H](O)[C@@H](COP(=O)(S)OP(=O)(O)OC2OC([C@H](COC(C)=O)OC(C)=O)C(OC(C)=O)C(OC(C)=O)C2OC(C)=O)O[C@H]1n1ccc(=O)[nH]c1=O (stereo partly drawn) [Example 42C]	37.8 min
C=C[C@@]1(F)[C@H](O)[C@@H](COP(=O)(S)OP(=O)(O)OC2OC([C@H](COC(C)=O)OC(C)=O)C(OC(C)=O)C(OC(C)=O)C2OC(C)=O)O[C@H]1n1cnc2c(N)ncnc21 (stereo partly drawn) [Example 41C]	51 min

Now examine the next entry.
Recorded result, C=C[C@@]1(O)[C@H](O)[C@@H](COP(=O)(S)OP(=O)(O)OC2OC([C@H](COC(C)=O)OC(C)=O)C(OC(C)=O)C(OC(C)=O)C2OC(C)=O)O[C@H]1c1cnc2c(N)ncnn12 (stereo partly drawn) [Example 127C] , half-life: 38.4 min
